experiment: pKa value determined by potentiometric titrations. 4.4 is the equivalence volume; initial titrant volume is 9.8; format: physicochemical
MEASURED_METRIC: pKa

QUERY: Returns the measured pKa for the input compound. Input: NC(Cc1c(O)noc1-c1nccs1)C(=O)O (stereo unspecified)
RESULT: < 2

====

Quick record of pIC50 values for Glutamate receptor ionotropic kainate.
Answers are plain numbers, as −log10 of the molar value.

Cn1nnc(-c2onc(O)c2CC(N)C(=O)O)n1 (centres undefined) : 4.39

QUERY: Returns the measured pIC50 for the input compound. Input: Cn1ncnc1-c1onc(O)c1CC(N)C(=O)O (centres undefined)
RESULT: 4.80

Numbers sourced from ChEMBL document CHEMBL1130350.
